This collection of values is drawn from PubChem BioAssay (NCI).

- System: SK-MEL-2 melanoma
- ASSAY_PROCEDURE: NCI tumour cell line growth inhibition, 48 h
Where a SMILES comes first, the peptide text is derived from it. [ ]: non-standard residue; d: D form. The star is where a group is joined. Phe(4-NO2) = N[CH](Cc1ccc([N+](=O)[O-])cc1)C(=O)O; Boc = CC(C)(C)OC(=O)*
I'd appreciate it if you could supply TGI values for the items below.
Numbers only, in µM.

See these solved cases before continuing.
>  <MOLECULE>
CCOC(=O)CCC(NC(=O)C(Cc1ccc([N+](=O)[O-])cc1)NC(=O)OC(C)(C)C)C(=O)NC(CCC(=O)OCC)C(=O)OCC (stereo unspecified) (Boc-[Phe(4-NO2)]-Glu(OEt)-Glu(OEt)-OEt; configuration not given here)

>  <TGI [µM]>
25.9

$$$$
>  <MOLECULE>
CC(C)[P+](c1ccccc1)(c1ccccc1)c1ccccc1

>  <TGI [µM]>
21.9

$$$$
>  <MOLECULE>
CC1=NN(c2ccccc2)C(=O)C12[C@H](c1ccccc1)C2(C#N)C#N (stereo partly specified)

>  <TGI [µM]>
16.7

$$$$

The record that follows has no TGI shown yet.
Please report the recorded TGI for COC(=O)CCC(=O)NC1=C(Nc2ccccc2)C(=O)c2ccccc2C1=O .
16.4
